pIC50: recorded values
biological target: human PAD4 (Homo sapiens); construct: human PAD4 (NM_012387), A2-P663, was PCR amplified; His-SUMO (N, cleaved yes); test: In vitro PAD4 BAEE biochemical assay; settings: BAEE substrate 3 mM, 5 nM PAD4, 2 mM calcium chloride; geometric mean of multiple experiments
pIC50: −log10 of the molar value.

molecule	study system	pIC50
COc1cc(C(=O)N2C[C@H]3CC[C@@H]2[C@@H]3N)cc2nc(-c3cc4ccc5nc4n3CCCCCCCCC(=O)N[C@@H]5C)n(C)c12 [Example 289]	human PAD4 (Homo sapiens)	7.60
COc1cc(C(=O)N[C@H]2CNCC[C@@H]2F)cc2nc(-c3cc4ccc5nc4n3CCCCC[C@H]3CC[C@@H]3C(=O)N[C@@H]5C)n(C)c12 (single isomer, unassigned) [Example 486]	human PAD4 (Homo sapiens)	6.96
COc1cc(C(=O)N2CCC[C@@H](N)C2)cc2nc(-c3cc4ccc5nc4n3CCCCC[C@@H]3C[C@H]3C(=O)N[C@@H]5C)n(C)c12 [Example 157]	human PAD4 (Homo sapiens)	7.44
COc1cc(C(=O)N2[C@H]3CC[C@@H]2[C@H](N)C3)cc2nc(-c3cc4ccc5nc4n3CCCCCCC3(CCC3)C(=O)N[C@@H]5C)n(C)c12 [Example 278]	human PAD4 (Homo sapiens)	7.33
C[C@H]1NC(=O)[C@@H]2C[C@H]2CCCC(F)(F)Cn2c(-c3nc4cc(C(=O)N5C[C@H](N)[C@@H]6CC[C@H]5C6)cc(F)c4n3CC(F)F)cc3ccc1nc32 [Example 922]	human PAD4 (Homo sapiens)	7.46
COc1cc(C(=O)N2CC[C@@H](O)[C@@H](N)C2)cc2nc(-c3cc4ccc5nc4n3CCCCCCC(C)(C)C(=O)N[C@@H]5C)n(C)c12 [Example 195]	human PAD4 (Homo sapiens)	7.25
COc1cc(C(=O)N2C[C@H]3CC[C@@H]2[C@@H]3N)cc2nc(-c3cc4ccc5nc4n3CCCCCCCC(=O)N[C@@H]5C)n(C)c12 [Example 288]	human PAD4 (Homo sapiens)	7.44
COc1cc(C(=O)N2[C@H]3CC[C@@H]2[C@H](N)C3)cc2nc(-c3cc4ccc5nc4n3CCCCCCCC(=O)NC5)n(C)c12 [Example 255]	human PAD4 (Homo sapiens)	7.23
CCc1c(-c2cc3ccc4nc3n2CCCCCCCC(=O)N[C@@H]4C)nn2cc(C(=O)N3[C@H]4CC[C@@H]3[C@H](N)C4)ccc12 [Example 252]	human PAD4 (Homo sapiens)	7.35
COc1cc(C(=O)N2[C@H]3CC[C@@H]2[C@H](N)C3)cc2nc(-c3cc4ccc5nc4n3CCCCC[C@@H]3C[C@H]3C(=O)N[C@@H]5C)n(C)c12 (single isomer, unassigned) [Example 223]	human PAD4 (Homo sapiens)	7.55
C[C@H]1NC(=O)c2cccc(F)c2CCCCCn2c(-c3nc4cc(C(=O)N[C@H]5CNCC[C@@H]5F)c(F)cc4n3C)cc3ccc1nc32 [Example 352]	human PAD4 (Homo sapiens)	7.28
COc1cc(C(=O)N2CCC[C@@H](N)C2)cc2nc(-c3cc4ccc5nc4n3CCCCCC(C)(C)C(=O)N[C@@H]5C)c(C)n12 [Example 106]	human PAD4 (Homo sapiens)	6.70
COc1cc(C(=O)N2CC[C@@H](OC)[C@@H](N)C2)cc2nc(-c3cc4ccc5nc4n3CCCCCc3ccccc3C(=O)N(C)[C@@H]5C)n(C)c12 [Example 654]	human PAD4 (Homo sapiens)	7.29
COCCn1c(-c2cc3ccc4nc3n2CCCCC[C@@H]2C[C@H]2C(=O)N[C@@H]4C)nc2cc(C(=O)N3C[C@H](N)[C@@H]4CC[C@H]3C4)cc(OC)c21 [Example 817]	human PAD4 (Homo sapiens)	7.89
C[C@H]1NC(=O)c2cnc(Cl)cc2CCCCCn2c(-c3nc4cc(C(=O)N[C@H]5CNCC[C@@H]5F)c(F)cc4n3C3CC3)cc3ccc1nc32 [Example 357]	human PAD4 (Homo sapiens)	7.51
COc1cc(C(=O)N2CC[C@@H](OC)[C@@H](N)C2)cc2nc(-c3cc4ccc5nc4n3CCCCCCC3(COC3)C(=O)N[C@@H]5C)n(C)c12 [Example 611]	human PAD4 (Homo sapiens)	7.07
COc1cc(C(=O)N2CCC[C@@H](N)[C@H]2C(F)F)cc2nc(-c3cc4ccc5nc4n3CC(F)(F)CCC[C@@H]3C[C@H]3C(=O)N[C@@H]5C)n(C)c12 [Example 647]	human PAD4 (Homo sapiens)	7.24
COc1cc(C(=O)N2[C@H]3CC[C@@H]2[C@H](N)C3)cc2nc(-c3cc4ccc5nc4n3C[C@H]3C[C@H]3COCCC(=O)N[C@@H]5C)n(C)c12 [Example 336]	human PAD4 (Homo sapiens)	7.47
COc1cc(C(=O)N2[C@H]3CC[C@@H]2[C@H](N)C3)cc2nc(-c3cc4ccc5nc4n3CCCCCC(=O)N[C@@H]5C)c(C)n12 [Example 320]	human PAD4 (Homo sapiens)	7.77
COc1cc(C(=O)N2CC[C@@H](OC)[C@@H](N)C2)cc2nc(-c3cc4ccc5nc4n3CCCCC[C@@H]3C[C@@]3(F)C(=O)N[C@@H]5C)n(C)c12 [Example 695]	human PAD4 (Homo sapiens)	7.24

---

target: human PAD4 (Homo sapiens, UniProt Q9UM07); construct: human PAD4 (NM_012387), A2-P663, was PCR amplified; His-SUMO (N, cleaved yes); assay: In vitro PAD4 BAEE biochemical assay; settings: BAEE substrate 3 mM, 5 nM PAD4, 2 mM calcium chloride; geometric mean of multiple experiments
Sequence (Q9UM07 2-663): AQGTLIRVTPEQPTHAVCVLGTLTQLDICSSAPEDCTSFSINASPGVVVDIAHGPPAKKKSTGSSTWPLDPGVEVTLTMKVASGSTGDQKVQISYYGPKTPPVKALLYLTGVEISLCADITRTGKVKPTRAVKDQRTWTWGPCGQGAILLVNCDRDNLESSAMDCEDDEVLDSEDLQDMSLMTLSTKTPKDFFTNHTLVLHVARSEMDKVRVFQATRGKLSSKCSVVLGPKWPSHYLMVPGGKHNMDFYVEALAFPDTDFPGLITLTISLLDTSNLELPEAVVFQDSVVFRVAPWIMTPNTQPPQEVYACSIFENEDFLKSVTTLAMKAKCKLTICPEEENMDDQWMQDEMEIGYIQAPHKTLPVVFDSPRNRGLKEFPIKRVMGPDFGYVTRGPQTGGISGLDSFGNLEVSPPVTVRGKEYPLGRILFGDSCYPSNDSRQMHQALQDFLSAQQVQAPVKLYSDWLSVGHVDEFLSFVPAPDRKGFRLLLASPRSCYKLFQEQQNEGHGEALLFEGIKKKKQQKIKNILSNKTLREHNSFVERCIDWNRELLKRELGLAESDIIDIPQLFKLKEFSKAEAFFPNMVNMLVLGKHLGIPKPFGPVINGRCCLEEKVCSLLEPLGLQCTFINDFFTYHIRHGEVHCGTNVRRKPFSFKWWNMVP
Category key, based on recorded IC50: Low: < 30 nM; Medium: ≥ 30 nM and < 70 nM; High: ≥ 70 nM

molecule	study system	label class
COc1cc(C(=O)N2C[C@H](N)[C@@H]3CC[C@H]2C3)cc2nc(-c3cc4ccc5nc4n3CCCCCCC(C)(C)C(=O)N[C@@H]5C)n(C)c12 [Example 441]	human PAD4 (Homo sapiens, UniProt Q9UM07)	Medium
C[C@H]1NC(=O)[C@@H]2C[C@H]2CCCC(F)(F)Cn2c(-c3nc4cc(C(=O)N5C[C@H](N)[C@@H]6CC[C@H]5C6)cc(F)c4n3C3CC3)cc3cc(F)c1cc32 [Example 464]	human PAD4 (Homo sapiens, UniProt Q9UM07)	Low
C[C@H]1NC(=O)C(C)(C)OCCCCCn2c(-c3nc4cc(C(=O)N[C@H]5CNCC[C@@H]5F)c(F)cc4n3C3CC3)cc3ccc1nc32 [Example 540]	human PAD4 (Homo sapiens, UniProt Q9UM07)	High
C[C@H]1NC(=O)[C@@H]2[C@@H](CCCCCn3c(-c4nc5cc(C(=O)N[C@H]6CNCC[C@@H]6F)c(F)cc5n4C4CC4)cc4ccc1nc43)C2(F)F [Example 393]	human PAD4 (Homo sapiens, UniProt Q9UM07)	Medium
COc1cc(C(=O)N2[C@H]3CC[C@@H]2[C@H](N)C3)cc2nc(-c3cc4ccc5cc4n3CCCCCCCC(=O)N[C@@H]5C)n(C)c12 [Example 215]	human PAD4 (Homo sapiens, UniProt Q9UM07)	Low
C[C@@H]1C[C@H]1n1c(-c2cc3ccc4nc3n2CCCCC[C@@H]2C[C@H]2C(=O)N[C@@H]4C)nc2cc(C(=O)N[C@H]3CNCC[C@@H]3F)c(F)cc21 [Example 416]	human PAD4 (Homo sapiens, UniProt Q9UM07)	Medium
COc1cc(C(=O)N2CC[C@@H]3CCCN[C@@H]3C2)cc2nc(-c3cc4ccc5nc4n3CCCCCCC(C)(C)C(=O)N[C@@H]5C)n(C)c12 (single isomer, unassigned) [Example 262]	human PAD4 (Homo sapiens, UniProt Q9UM07)	High
COc1cc(C(=O)N2C[C@H]3C[C@H]3[C@@H](N)C2)cc2nc(-c3cc4ccc5nc4n3CCCCCCC(C)(C)C(=O)N[C@@H]5C)n(C)c12 [Example 206]	human PAD4 (Homo sapiens, UniProt Q9UM07)	High
CO[C@H]1C[C@@H]1n1c(-c2cc3ccc4nc3n2CC(F)(F)CCC[C@@H]2C[C@H]2C(=O)N[C@@H]4C)nc2cc(C(=O)N3C[C@H](N)[C@@H]4CC[C@H]3C4)cc(F)c21 [Example 470]	human PAD4 (Homo sapiens, UniProt Q9UM07)	Medium
COc1cc(C(=O)N2[C@H]3CC[C@@H]2[C@H](N)C3)cc2nc(-c3cc4ccc5nc4n3CCCCCCn3nccc3C(=O)N[C@@H]5C)c(C)n12 [Example 35]	human PAD4 (Homo sapiens, UniProt Q9UM07)	Medium
C[C@H]1NC(=O)[C@@H]2C[C@H]2CCCCCn2c(-c3nc4cc(C(=O)N[C@H]5CNCC[C@@H]5F)c(F)cn4c3C3CC3)cc3ccc1nc32 [Example 580]	human PAD4 (Homo sapiens, UniProt Q9UM07)	Low
C[C@H]1NC(=O)c2ccc(Cl)nc2CCCCCn2c(-c3nc4cc(C(=O)N5CC[C@H]6CC[C@@H]5[C@@H]6N)cc(F)c4n3C3CC3)cc3ccc1nc32 [Example 774]	human PAD4 (Homo sapiens, UniProt Q9UM07)	Medium

The values you see were collected from patent US11976083B2.
